Collected IC50 values appear next to each entry.
# system under test: KRAS G12C (Homo sapiens (Human), UniProt P01116+P62937, G12C)
# Sequence (P01116-2 other isoform, or with tags, fused parts or gaps G12C): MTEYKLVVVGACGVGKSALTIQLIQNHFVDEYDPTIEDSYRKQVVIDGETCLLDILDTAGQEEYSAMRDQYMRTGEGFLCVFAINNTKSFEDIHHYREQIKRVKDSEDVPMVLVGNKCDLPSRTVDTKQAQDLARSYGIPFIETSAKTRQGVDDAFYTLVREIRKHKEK
# Sequence (P62937 whole entry): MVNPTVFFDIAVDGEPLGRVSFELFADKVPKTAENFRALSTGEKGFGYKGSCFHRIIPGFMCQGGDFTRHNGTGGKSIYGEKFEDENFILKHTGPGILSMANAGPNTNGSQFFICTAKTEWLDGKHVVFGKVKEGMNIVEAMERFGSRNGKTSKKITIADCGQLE
# procedure text: Ras-Raf disruption/FRET/MOA assay (BRAF RBD, Cyclophilin A)
# Assay type: biochemical
# applied conditions: read-out: KRAS G12C FRET IC50
# Method: Compound is present in plate wells as a 10-point 3-fold dilution series starting at a final concentration of 30 μM. After incubation at 25° C. for 3 hours, a mixture of Anti-His Eu—W1024 and anti-GST allophycocyanin is then added to assay sample wells at final concentrations of 10 nM and 50 nM, respectively, and the reaction incubated for an additional 1.5 hours. […]

Take a look at these entries with their results.
molecule | system under test | quantity name | result
CCn1c(-c2cccnc2[C@H](C)OC)c2c3cc(ccc31)-c1cc(O)cc(c1)C[C@H](NC(=O)[C@H](C(C)C)N(C)C(=O)[C@H]1CCCC[C@@H]1N)C(=O)N1CCC[C@H](N1)C(=O)OCC(C)(C)C2 | KRAS G12C (Homo sapiens (Human), UniProt P01116+P62937, G12C) | IC50 | 100 to 1000 nM
CCn1c(-c2cccnc2[C@H](C)OC)c2c3cc(ccc31)-c1cc(O)cc(c1)C[C@H](NC(=O)[C@@H]1CCCCCN1C(C)=O)C(=O)N1CCC[C@H](N1)C(=O)OCC(C)(C)C2 | KRAS G12C (Homo sapiens (Human), UniProt P01116+P62937, G12C) | IC50 | 100 to 1000 nM
CCn1c(-c2cccnc2[C@H](C)OC)c2c3cc(ccc31)-c1csc(n1)C[C@H](NC(=O)[C@H](C(C)C)N(C)C(=O)N1CC(C(C)(C)O)C1)C(=O)N1CCC[C@H](N1)C(=O)OCC(C)(C)C2 | KRAS G12C (Homo sapiens (Human), UniProt P01116+P62937, G12C) | IC50 | 10 to 100 nM

Prompt line: Tell me the measured IC50 of "CCn1c(-c2cccnc2[C@H](C)OC)c2c3cc(ccc31)-c1csc(n1)C[C@H](NC(=O)N1CCOCC1)C(=O)N1CCC[C@H](N1)C(=O)OCC(C)(C)C2" , please.
Response line: 100 to 1000 nM
